- Tested System: UniProtKB P19801
- Sequence (P19801 20-751): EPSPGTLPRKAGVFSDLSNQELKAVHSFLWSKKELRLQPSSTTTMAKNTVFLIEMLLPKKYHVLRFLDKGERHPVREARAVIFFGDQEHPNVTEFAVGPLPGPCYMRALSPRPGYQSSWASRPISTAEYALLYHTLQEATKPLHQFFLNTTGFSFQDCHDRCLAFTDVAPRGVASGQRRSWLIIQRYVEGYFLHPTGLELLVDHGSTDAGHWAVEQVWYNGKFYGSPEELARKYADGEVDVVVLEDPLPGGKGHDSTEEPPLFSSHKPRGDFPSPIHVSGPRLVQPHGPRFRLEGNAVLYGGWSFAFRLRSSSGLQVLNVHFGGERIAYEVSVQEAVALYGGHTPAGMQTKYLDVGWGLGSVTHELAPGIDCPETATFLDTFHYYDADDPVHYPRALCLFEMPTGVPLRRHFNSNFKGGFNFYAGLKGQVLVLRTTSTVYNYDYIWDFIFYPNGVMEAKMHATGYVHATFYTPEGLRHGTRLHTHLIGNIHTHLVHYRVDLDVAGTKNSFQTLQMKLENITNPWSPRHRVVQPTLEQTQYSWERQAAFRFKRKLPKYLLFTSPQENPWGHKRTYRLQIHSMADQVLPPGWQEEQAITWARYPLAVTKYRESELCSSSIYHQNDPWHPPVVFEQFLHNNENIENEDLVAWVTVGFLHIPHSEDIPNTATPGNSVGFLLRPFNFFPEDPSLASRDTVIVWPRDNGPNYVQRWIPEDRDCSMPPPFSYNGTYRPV

>  <Smi>
Clc1cccc(Cl)c1N=C1NCCN1

>  <Unit Of Measurement>
µM

>  <Ki>
100

$$$$
>  <Smi>
NNC(=O)c1ccncc1

>  <Unit Of Measurement>
µM

>  <Ki>
970

$$$$
>  <Smi>
CN/C(=N/CCSCc1nc[nH]c1C)NC#N

>  <Unit Of Measurement>
µM

>  <Ki>
90

$$$$
>  <Smi>
NCCCCN

>  <Unit Of Measurement>
µM

>  <Ki>
2270

$$$$
